# STUDY_SYSTEM: JAK1 (Homo sapiens, UniProt P23458)
# Sequence (P23458 whole entry, species assumed): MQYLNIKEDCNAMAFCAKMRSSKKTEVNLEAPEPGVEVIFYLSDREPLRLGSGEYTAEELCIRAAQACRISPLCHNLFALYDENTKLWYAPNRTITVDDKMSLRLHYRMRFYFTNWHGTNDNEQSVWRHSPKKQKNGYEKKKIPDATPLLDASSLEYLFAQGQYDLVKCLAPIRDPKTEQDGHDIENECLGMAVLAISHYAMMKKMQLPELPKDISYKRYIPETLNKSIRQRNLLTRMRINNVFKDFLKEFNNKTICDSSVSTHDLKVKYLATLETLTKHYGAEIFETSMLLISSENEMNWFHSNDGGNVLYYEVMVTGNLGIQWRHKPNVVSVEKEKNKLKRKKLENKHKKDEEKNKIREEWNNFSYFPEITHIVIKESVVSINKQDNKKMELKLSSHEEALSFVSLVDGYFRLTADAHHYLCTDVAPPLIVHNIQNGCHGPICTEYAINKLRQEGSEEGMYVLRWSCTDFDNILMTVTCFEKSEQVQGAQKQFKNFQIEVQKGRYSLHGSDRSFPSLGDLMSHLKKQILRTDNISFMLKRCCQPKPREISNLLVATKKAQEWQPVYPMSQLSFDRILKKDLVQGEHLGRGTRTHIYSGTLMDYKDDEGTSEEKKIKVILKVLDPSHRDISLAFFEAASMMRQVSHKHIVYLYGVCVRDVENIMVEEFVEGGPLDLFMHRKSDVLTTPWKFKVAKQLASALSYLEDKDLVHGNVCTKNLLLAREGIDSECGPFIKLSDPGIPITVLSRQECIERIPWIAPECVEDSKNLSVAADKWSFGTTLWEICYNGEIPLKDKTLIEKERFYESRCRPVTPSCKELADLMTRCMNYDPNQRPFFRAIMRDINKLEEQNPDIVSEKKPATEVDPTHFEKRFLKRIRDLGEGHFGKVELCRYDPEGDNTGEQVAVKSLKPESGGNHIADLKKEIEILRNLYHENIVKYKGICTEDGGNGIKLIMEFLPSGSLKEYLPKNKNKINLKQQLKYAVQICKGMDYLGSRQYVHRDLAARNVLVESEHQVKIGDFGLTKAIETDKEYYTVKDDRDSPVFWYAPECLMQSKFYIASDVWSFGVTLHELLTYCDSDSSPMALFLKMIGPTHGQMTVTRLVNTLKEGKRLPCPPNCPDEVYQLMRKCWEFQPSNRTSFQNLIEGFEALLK
pIC50: −log10 of the molar value.
MEASUREMENT_NAME: pIC50

Fetch value of pIC50 on JAK1 (Homo sapiens, UniProt P23458) for C/C(O)=C(\C#N)C(=O)Nc1cc(Br)ccc1Br [LFM-A13] . < 3.56

* * *

# STUDY_SYSTEM: Insulin-Receptor Kinase (IRK) (Homo sapiens, UniProt P06213)
# Construct: IRK was immunoprecipitated from the lysates with an anti-IRb antibody
# Sequence (P06213 28-1382): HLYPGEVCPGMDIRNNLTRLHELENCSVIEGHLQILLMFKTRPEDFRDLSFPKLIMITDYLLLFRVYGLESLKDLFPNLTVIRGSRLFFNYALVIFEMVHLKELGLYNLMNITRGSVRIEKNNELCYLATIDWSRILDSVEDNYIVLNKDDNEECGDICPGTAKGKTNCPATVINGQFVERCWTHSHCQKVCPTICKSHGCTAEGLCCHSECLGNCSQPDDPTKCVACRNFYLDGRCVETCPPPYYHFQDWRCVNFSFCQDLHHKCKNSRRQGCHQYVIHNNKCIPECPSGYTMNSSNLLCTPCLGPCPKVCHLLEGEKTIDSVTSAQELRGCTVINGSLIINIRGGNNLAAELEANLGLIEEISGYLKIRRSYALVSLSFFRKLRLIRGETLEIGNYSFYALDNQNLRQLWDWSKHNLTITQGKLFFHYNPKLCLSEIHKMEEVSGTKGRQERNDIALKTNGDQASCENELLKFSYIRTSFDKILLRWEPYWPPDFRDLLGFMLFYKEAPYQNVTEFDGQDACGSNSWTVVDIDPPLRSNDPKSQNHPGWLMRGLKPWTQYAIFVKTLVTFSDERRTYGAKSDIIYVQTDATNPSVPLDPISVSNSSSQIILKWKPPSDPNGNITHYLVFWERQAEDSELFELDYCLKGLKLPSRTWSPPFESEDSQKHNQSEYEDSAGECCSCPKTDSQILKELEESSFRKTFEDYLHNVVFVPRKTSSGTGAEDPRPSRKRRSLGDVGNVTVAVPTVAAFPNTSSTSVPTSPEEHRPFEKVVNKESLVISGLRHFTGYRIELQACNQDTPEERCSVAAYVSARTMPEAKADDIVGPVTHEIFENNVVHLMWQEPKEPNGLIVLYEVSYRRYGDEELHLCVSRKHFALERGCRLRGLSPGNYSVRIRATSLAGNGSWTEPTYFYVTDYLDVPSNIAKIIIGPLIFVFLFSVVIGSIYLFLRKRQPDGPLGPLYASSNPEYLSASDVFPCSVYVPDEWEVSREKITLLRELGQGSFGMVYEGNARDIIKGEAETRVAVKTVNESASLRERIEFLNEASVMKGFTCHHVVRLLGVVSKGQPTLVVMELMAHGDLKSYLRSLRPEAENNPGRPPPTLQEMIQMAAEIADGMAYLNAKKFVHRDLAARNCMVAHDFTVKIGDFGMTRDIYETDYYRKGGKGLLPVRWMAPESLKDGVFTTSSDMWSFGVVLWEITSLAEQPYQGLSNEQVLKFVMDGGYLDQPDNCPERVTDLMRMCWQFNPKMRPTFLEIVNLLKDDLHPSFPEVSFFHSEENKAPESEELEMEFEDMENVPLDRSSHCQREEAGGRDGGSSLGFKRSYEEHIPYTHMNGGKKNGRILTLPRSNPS
# TEST_NAME: Cell-free tyrosine kinase inhibition assay IRK from HepG2 cells
# CONDITION_CONTEXT: IRK
MEASUREMENT_NAME: IC50

Return IC50 for the following compound: C/C(O)=C(\C#N)C(=O)Nc1cc(Br)ccc1Br [LFM-A13] > 278 µM
